# Test system: Streptococcus pyogenes
# measurementProtocol: Antibacterial activity against Streptococcus pyogenes MTCC 442
# Format: functional
# MIC per record follows
Please answer using a numeric value trailed by its unit.

Example cases with answers are listed next.
compound	assaySystem	MIC
COc1cc(OS(=O)(=O)C(F)(F)F)c2c(c1C(C)=O)OC(C)(C)C=C2	Streptococcus pyogenes	0.83 µg/mL
COc1cc(OC)c2c(c1C(C)=O)OC(C)(C)[C@H](O)[C@@H]2O	Streptococcus pyogenes	2.85 µg/mL
COc1cc2c(c(O)c1C(C)=O)C(=O)CC(C)(C)O2	Streptococcus pyogenes	3.12 µg/mL
COc1cc(OC)c2c(c1C(C)=O)OC(C)(C)C(OC)C2F (stereo unspecified)	Streptococcus pyogenes	0.94 µg/mL

From here, focus on the item given below.
INPUT: Record request: MIC value, item COc1cc(OC)c2c(c1C(C)=O)OC(C)(C)C(OC)C2Cl (stereo unspecified)
OUTPUT: 1.07 µg/mL

* * *

# log10(MIC) per record follows
# Test system: Corynebacterium diphtheriae
# measurementProtocol: Antibacterial activity against Corynebacterium diphtheriae MTCC 116
# Assay type: functional
Parameter value (number): base-10 log of MIC in µg/mL.

Example cases with answers are listed next.
molecule	log10(MIC)
COc1cc(O)c2c(c1C(C)=O)OC(C)(C)C(OC)C2Cl (stereo not given)	-0.17
COc1cc(O)c2c(c1C(C)=O)OC(C)(C)C=C2	-0.09
CO[C@@H]1[C@@H](OC(N)=O)[C@@H](O)[C@H](Oc2ccc3c(O)c(NC(=O)c4ccc(O)c(CC=C(C)C)c4)c(=O)oc3c2C)OC1(C)C	0.12
COc1cc(OS(=O)(=O)C(F)(F)F)c2c(c1C(C)=O)OC(C)(C)C=C2	-1.40

INPUT: Record request: log10(MIC) value, item `COc1cc2c(c(O)c1C(C)=O)C(=O)CC(C)(C)O2`
OUTPUT: 0.01

* * *

# assaySystem: DNA gyrase (Staphylococcus aureus) (UniProt P0A0K8+P20831)
# Sequence (P0A0K8 2-644 limits assumed): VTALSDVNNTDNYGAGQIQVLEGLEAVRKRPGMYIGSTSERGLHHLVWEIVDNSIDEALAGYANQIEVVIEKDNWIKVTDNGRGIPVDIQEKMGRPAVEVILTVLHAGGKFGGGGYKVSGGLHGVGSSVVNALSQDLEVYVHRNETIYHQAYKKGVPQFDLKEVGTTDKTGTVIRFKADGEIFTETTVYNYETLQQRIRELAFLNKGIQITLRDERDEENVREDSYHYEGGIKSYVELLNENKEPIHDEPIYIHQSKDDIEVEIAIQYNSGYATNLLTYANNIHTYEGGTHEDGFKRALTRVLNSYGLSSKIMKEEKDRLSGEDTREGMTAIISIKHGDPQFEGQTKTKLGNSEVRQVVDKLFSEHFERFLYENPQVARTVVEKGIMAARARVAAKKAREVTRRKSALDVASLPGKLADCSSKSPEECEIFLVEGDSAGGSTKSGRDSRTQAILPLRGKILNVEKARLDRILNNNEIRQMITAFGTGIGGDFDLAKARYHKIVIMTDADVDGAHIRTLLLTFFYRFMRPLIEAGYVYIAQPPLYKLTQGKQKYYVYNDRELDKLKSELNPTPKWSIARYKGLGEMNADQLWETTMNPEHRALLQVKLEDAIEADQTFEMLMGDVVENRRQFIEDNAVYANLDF
# Sequence (P20831 whole entry partner): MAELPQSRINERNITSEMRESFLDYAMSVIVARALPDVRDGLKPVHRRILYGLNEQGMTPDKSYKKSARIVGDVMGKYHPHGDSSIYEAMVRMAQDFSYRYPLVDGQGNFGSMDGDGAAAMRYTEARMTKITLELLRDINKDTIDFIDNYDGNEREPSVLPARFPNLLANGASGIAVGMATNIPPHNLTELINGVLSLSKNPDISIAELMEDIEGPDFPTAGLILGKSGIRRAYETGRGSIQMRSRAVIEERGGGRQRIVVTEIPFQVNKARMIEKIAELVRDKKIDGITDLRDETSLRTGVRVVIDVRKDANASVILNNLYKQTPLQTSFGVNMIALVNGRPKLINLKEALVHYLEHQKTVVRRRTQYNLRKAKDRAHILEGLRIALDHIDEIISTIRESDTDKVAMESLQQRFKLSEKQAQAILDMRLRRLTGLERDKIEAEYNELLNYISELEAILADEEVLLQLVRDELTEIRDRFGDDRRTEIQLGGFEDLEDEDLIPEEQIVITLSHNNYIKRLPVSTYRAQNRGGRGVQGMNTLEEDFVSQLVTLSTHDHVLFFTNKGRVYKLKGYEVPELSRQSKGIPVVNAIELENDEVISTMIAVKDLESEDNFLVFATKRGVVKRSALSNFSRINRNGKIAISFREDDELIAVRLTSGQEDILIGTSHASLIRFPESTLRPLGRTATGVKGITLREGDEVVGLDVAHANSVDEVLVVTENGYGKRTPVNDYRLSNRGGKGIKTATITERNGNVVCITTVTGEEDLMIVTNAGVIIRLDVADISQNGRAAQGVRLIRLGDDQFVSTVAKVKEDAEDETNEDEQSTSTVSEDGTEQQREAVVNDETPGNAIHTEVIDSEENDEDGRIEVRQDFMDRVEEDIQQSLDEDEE
# measurementProtocol: Inhibition of Staphylococcus aureus DNA gyrase assessed as reduction in relaxation of pBR322 DNA at 1.5 ug by […] analysis relative to control
# Type: protein-complex assay
# inhibition per record follows

compound	val
COc1c(Br)c(OC)c(C(C)=O)c2c1C=CC(C)(C)O2	78 to 94%

INPUT: Record request: inhibition value, item COc1cc(OC)c2c(c1C(C)=O)OC(C)(C)C(O)C2Br (configuration not stated)
OUTPUT: 78 to 94%

INPUT: Record request: inhibition value, item `COc1cc(OS(=O)(=O)C(F)(F)F)c2c(c1C(C)=O)OC(C)(C)C=C2`
OUTPUT: 94%

INPUT: Record request: inhibition value, item `COc1cc(OC)c2c(c1C(C)=O)OC(C)(C)[C@H](O)[C@@H]2O`
OUTPUT: 78 to 94%

INPUT: Record request: inhibition value, item COc1cc(O)c2c(c1C(C)=O)OC(C)(C)C(OC)C2Cl (configuration not stated)
OUTPUT: 90%

INPUT: Record request: inhibition value, item COc1cc(OC)c2c(c1C(C)=O)OC(C)(C)C(OC)C2Cl (configuration not stated)
OUTPUT: 78 to 94%

INPUT: Record request: inhibition value, item `COc1cc2c(c(O)c1C(C)=O)C(=O)CC(C)(C)O2`
OUTPUT: 78 to 94%

INPUT: Record request: inhibition value, item `CO[C@@H]1[C@@H](OC(=O)c2ccc(C)[nH]2)[C@@H](O)[C@H](Oc2ccc3c(O)c(NC(=O)c4ccc(O)c(CC=C(C)C)c4)c(=O)oc3c2Cl)OC1(C)C`
OUTPUT: 86%

INPUT: Record request: inhibition value, item COc1cc(OC)c2c(c1C(C)=O)OC(C)(C)C(OC)C2F (configuration not stated)
OUTPUT: 78 to 94%

INPUT: Record request: inhibition value, item `COc1cc(OC)c2c(c1C(C)=O)OC(C)(C)[C@@H](O)[C@H]2O`
OUTPUT: 78 to 94%

INPUT: Record request: inhibition value, item `COc1cc(O)c2c(c1C(C)=O)OC(C)(C)C=C2`
OUTPUT: 78 to 94%

INPUT: Record request: inhibition value, item `COc1cc2c(c(OC)c1C(C)=O)[C@H](O)[C@H](O)C(C)(C)O2`
OUTPUT: 78 to 94%
